From: patent US12516056B2

# Target System: Recombinant JAK2 (Homo sapiens)
# Construct: purchased Carna Biosciences
# Sequence (O60674 whole entry): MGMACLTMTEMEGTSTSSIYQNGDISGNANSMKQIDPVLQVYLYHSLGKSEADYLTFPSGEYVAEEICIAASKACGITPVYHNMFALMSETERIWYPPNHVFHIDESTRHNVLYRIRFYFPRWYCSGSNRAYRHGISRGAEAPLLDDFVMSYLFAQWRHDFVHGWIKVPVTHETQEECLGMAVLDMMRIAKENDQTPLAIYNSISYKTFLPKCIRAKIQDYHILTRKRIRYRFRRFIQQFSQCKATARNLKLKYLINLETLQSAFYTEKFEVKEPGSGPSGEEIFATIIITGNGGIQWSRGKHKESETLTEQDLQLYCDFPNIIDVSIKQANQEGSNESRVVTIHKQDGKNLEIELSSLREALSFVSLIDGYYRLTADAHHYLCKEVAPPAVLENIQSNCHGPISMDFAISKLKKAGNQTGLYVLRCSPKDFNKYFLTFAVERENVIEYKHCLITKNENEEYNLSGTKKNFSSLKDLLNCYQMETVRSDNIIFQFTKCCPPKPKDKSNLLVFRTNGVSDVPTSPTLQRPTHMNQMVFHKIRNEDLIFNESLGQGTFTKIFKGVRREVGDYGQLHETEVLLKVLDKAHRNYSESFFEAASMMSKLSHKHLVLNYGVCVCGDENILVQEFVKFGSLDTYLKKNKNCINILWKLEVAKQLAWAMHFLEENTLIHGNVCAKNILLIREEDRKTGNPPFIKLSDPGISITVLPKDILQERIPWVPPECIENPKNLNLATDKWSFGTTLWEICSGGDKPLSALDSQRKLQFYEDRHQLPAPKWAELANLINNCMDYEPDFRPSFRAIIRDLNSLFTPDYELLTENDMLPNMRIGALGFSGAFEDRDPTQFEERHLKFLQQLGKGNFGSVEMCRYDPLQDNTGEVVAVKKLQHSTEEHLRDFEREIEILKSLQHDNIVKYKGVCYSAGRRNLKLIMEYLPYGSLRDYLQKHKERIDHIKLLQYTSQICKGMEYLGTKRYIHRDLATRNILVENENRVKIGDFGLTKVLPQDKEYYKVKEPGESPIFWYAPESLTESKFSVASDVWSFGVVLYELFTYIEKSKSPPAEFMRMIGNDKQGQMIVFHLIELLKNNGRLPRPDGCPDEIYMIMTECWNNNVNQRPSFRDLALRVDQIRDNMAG
# Method: JAK biochemical assay (LANCE Ultra TR-FRET), JAK2
# Measurement Context: recombinant JAK2, TR-FRET; read-out: Biochemical Assay (μM) JAK2
Reported IC50 values follow for various compounds

The following compounds have reported results that may help.
| Compound | Measured Property | Endpoint Value |
| --- | --- | --- |
| CS(=O)(=O)CCC(C#N)NC(=O)n1cc(-c2ccnc3[nH]cnc23)cn1 (stereo not shown) | IC50 | > 0.5 µM |
| CS(=O)(=O)CCC(c1ccc(-n2cc(-c3ccnc4[nH]c(=O)[nH]c34)cn2)nc1)C(F)(F)F (stereo not shown) [Example 1189] | IC50 | > 1 µM |
| FC(F)(F)C(CCNC1CC1)c1ccc(-n2cc(-c3ccnc4[nH]cnc34)cn2)nc1 (stereo not shown) | IC50 | < 0.1 µM |

Here is another compound to look at.
# assay system Recombinant JAK2 (Homo sapiens): give IC50 of FC(F)(F)C(OCCNC1CC1)c1ccc(-n2cc(-c3ccnc4[nH]cnc34)cn2)nc1 (stereo not shown) < 0.1 µM
